Source: BigSolDB 2.1

Settings: in 1,2-dichloroethane, 317.8 K
testReadout: solubility (mole fraction)
Numbers only.

Task item: Quick check: solubility (mole fraction) of CC1(C)COP(=O)(C(C)(C)O)OC1 ?
Reply: 0.00654

---

Conditions: in 1,2-dichloroethane, 288.55 K
testReadout: solubility (mole fraction)
One number for each entry.

Task item: Quick check: solubility (mole fraction) of CC1(C)COP(=O)(C(C)(C)O)OC1 ?
Reply: 0.00156

---

Details: in ethyl acetate, 322.75 K
testReadout: solubility (mole fraction)
One number for each entry.

Task item: Quick check: solubility (mole fraction) of CC1(C)COP(=O)(C(C)(C)O)OC1 ?
Reply: 0.00445
